Tested on: DNA
Assay: Binding affinity to calf thymus DNA assessed as change in melting temperature at 5 uM after 10 mins by thermal denaturation assay
Format: nucleic-acid assay
Conditions: Bos taurus
property.measured: ΔTm (°C)

[P] CCN(CC)CCOc1ccc(-c2c(-c3ccc(OCCN(CC)CC)cc3)c3ccccc3oc2=O)cc1
[Q] CN1CCN(CCOc2ccc(-c3c(-c4ccccc4)c4ccc(OCCN5CCN(C)CC5)cc4oc3=O)cc2)CC1
Challenge: Sort P and Q by ΔTm descending and give the first. Return value: the label identifying the chosen record.
Response given: P
(P: 4.5 °C, Q: 2.2 °C)

----------
Test: Cytotoxicity against mouse skull osteoblasts at 40 uM after 48 hrs by MTT assay relative to control
Format: cell-based
Conditions: osteoblast
property.measured: Activity (%)
Write the answer as a number in %, unit excluded.

Solved cases (5 shown):
[
  {
    "input.smiles": "CCN(CC)CCOc1ccc(-c2c(-c3ccccc3)c3ccc(OCCN(CC)CC)cc3oc2=O)cc1",
    "unit.abbrev": "%",
    "Activity": 15.8
  },
  {
    "input.smiles": "O=c1oc2ccccc2c(-c2ccc(OCCN3CCCCC3)cc2)c1-c1ccc(OCCN2CCCCC2)cc1",
    "unit.abbrev": "%",
    "Activity": 22.3
  },
  {
    "input.smiles": "O=c1oc2cc(OCCN3CCCCC3)ccc2c(-c2ccccc2)c1-c1ccc(OCCN2CCCCC2)cc1",
    "unit.abbrev": "%",
    "Activity": 18.6
  },
  {
    "input.smiles": "CN1CCN(CCOc2ccc(-c3c(-c4ccccc4)c4ccc(OCCN5CCN(C)CC5)cc4oc3=O)cc2)CC1",
    "unit.abbrev": "%",
    "Activity": 14.6
  },
  {
    "input.smiles": "O=c1oc2cc(OCCN3CCCC3)ccc2c(-c2ccccc2)c1-c1ccc(OCCN2CCCC2)cc1",
    "unit.abbrev": "%",
    "Activity": 16.4
  }
]

Challenge: Check the records and state Activity for O=c1oc2ccccc2c(-c2ccc(OCCN3CCCC3)cc2)c1-c1ccc(OCCN2CCCC2)cc1
Response given: 20.4

Challenge: Check the records and state Activity for CN(C)CCOc1ccc(-c2c(-c3ccccc3)c3ccc(OCCN(C)C)cc3oc2=O)cc1
Response given: 13.8

----------
Assay: Cytotoxicity against mouse skull osteoblasts at 20 uM after 48 hrs by MTT assay relative to control
Format: cell-based
Conditions: osteoblast
Listed next: entries and their corresponding Activity.
Write the answer as a number in %, unit excluded.

Solved cases (5 shown):
[
  {
    "input.smiles": "CCN(CC)CCOc1ccc(-c2c(-c3ccccc3)c3ccc(OCCN(CC)CC)cc3oc2=O)cc1",
    "unit.abbrev": "%",
    "Activity": 3.7
  },
  {
    "input.smiles": "O=c1oc2ccccc2c(-c2ccc(OCCN3CCCC3)cc2)c1-c1ccc(OCCN2CCCC2)cc1",
    "unit.abbrev": "%",
    "Activity": 8.4
  },
  {
    "input.smiles": "CN1CCN(CCOc2ccc(-c3c(-c4ccccc4)c4ccc(OCCN5CCN(C)CC5)cc4oc3=O)cc2)CC1",
    "unit.abbrev": "%",
    "Activity": 3.2
  },
  {
    "input.smiles": "O=c1oc2ccccc2c(-c2ccc(OCCN3CCCCC3)cc2)c1-c1ccc(OCCN2CCCCC2)cc1",
    "unit.abbrev": "%",
    "Activity": 10.6
  },
  {
    "input.smiles": "O=c1oc2cc(OCCN3CCCC3)ccc2c(-c2ccccc2)c1-c1ccc(OCCN2CCCC2)cc1",
    "unit.abbrev": "%",
    "Activity": 5.2
  }
]

Challenge: Check the records and state Activity for O=c1oc2cc(OCCN3CCCCC3)ccc2c(-c2ccccc2)c1-c1ccc(OCCN2CCCCC2)cc1
Response given: 4.9

Challenge: Check the records and state Activity for CN(C)CCOc1ccc(-c2c(-c3ccccc3)c3ccc(OCCN(C)C)cc3oc2=O)cc1
Response given: 4.3
